molecular target: 1,3-beta-glucan synthase (Aspergillus, UniProt Q4WLT4)
Sequence (Q4WLT4 whole entry): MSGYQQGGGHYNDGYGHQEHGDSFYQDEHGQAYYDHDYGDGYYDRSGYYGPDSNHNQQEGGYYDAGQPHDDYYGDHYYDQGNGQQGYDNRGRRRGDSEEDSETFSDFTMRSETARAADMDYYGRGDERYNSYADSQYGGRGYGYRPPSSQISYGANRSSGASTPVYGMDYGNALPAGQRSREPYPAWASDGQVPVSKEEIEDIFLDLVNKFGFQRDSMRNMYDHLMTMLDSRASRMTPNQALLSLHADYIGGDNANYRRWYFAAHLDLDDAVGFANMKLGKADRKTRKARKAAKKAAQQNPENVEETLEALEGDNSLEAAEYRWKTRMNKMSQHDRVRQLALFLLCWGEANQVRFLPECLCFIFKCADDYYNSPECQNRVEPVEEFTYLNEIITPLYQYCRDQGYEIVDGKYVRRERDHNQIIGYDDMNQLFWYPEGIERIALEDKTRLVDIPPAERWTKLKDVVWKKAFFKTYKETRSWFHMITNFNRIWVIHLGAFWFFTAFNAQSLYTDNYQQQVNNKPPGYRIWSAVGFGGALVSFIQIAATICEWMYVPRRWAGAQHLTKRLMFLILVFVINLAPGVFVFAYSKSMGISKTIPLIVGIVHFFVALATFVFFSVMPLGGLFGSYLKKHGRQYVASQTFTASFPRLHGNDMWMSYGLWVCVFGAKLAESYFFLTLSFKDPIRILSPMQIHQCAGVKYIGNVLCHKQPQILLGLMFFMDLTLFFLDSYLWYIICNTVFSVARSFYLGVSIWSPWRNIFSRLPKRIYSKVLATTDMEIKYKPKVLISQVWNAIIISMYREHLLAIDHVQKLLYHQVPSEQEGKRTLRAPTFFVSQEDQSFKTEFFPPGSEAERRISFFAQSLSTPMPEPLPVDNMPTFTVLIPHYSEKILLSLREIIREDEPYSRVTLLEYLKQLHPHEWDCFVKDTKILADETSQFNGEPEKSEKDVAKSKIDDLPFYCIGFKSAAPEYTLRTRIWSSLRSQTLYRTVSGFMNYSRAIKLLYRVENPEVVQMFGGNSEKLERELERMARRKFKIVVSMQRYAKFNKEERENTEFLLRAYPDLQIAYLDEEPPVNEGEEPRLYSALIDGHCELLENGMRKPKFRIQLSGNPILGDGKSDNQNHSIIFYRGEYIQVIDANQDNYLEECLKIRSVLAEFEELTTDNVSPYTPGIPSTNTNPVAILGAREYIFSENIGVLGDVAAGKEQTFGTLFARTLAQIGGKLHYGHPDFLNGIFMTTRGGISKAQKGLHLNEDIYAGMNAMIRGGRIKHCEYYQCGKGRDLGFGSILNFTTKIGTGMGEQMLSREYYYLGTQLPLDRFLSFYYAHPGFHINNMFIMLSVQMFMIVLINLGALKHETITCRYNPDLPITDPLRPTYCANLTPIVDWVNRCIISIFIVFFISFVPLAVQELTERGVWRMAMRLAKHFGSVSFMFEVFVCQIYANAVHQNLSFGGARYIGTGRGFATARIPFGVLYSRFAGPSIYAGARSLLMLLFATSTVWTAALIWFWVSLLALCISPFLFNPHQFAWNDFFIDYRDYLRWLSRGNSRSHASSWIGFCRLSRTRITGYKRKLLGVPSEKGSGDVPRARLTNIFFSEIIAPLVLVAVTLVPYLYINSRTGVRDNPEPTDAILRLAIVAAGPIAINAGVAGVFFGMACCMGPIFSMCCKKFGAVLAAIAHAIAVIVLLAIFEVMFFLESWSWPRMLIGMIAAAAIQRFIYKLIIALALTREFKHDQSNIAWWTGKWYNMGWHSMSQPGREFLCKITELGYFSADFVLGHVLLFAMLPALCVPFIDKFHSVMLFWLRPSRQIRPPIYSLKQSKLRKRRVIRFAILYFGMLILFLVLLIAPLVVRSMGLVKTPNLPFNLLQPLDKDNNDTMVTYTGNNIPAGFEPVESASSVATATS
measurementName: IC50 (µM)
Your answer is read as µM, so omit the unit and give the number.

Param request: IC50 | system 1,3-beta-glucan synthase (Aspergillus, UniProt Q4WLT4) | item N[C@H]1CCN(C(=O)CN(CC(=O)NCc2cccc(Cl)c2)c2ccc(Oc3ccccc3)cc2)C1
5.6
